# Experiment summary: yeast display, Sf9 membrane polyspecificity reagent, FACS + sequencing; frameworks hold sequencing errors

Residue string	polyreactivity (PSR sort gate)
QVQLVESGGGLDQAGGSLRLSCAASGVNAMGWYRQAPGKEREFVAAITSIGGSTYYADSVKGRFTISRDNAKNTVYLQMNRLKPEDTAVYYCNPDSGPVKVSPLYESWGQGTQVTVSS	low polyreactivity
QLQLVESGGGLVQAGGSLRLSCAASGFTFSAYAMGSYRQAPGKERELVAAISWSGGSTYYADSVKGRFTISRDNAKNTVYLQRNSLKPEDTAVYYCAADFHSYYRFDYWGQGTQVTVSS	high polyreactivity
QVQLVESGGGLVQAGGSLRLSCAASGRTFGRYAMGWYRQAPGKERELVATITSGGSTNYADSVKGRFTITRDNAKNTVYLQMNSLKPEDTAVYYCAAEFSPSRWAYSEGALRYNYWGQGTQVTVSS	low polyreactivity
QVQLGESVVCLDQAGVSLPLSCAASGFTFKYYTMRWFRQAPGKERELVAAISRRGGSTYYADSVKGRFTISRDNAKNTVYLQMKSLKPEDTAVYYCAADYRYVSTPYGYDYWGQGTQVTVSS	high polyreactivity
QVQLVESGGGLVQAGGRLRLSCAASGRTLVSNAMGWYRQAPGKERELVAAITYSGGSTYYADSVKGRFTISRDNAKNTVYLQMNSLKPEDTAVYYCAKVGRLYRVGGYDYWGQGTQVTVSS	low polyreactivity
